test: activity coefficient (dimensionless); of the first substance listed, at infinite dilution; xn = mol fraction of the nth substance listed; settings: 323 K; 87.4 kPa; Liquid; Chromatography; x1 = 0
// reported activity coefficient per item
PROPERTY MEASURED: activity coefficient

compound="O=C1CCCCC1 [cyclohexanone] + O=S(=O)([N-]S(=O)(=O)C(F)(F)F)C(F)(F)F.O=S(=O)([N-]S(=O)(=O)C(F)(F)F)C(F)(F)F.c1ccc2cc(C[N+]3(CCCCCCCCC[N+]4(Cc5ccc6ccccc6c5)CCCC4)CCCC3)ccc2c1" property_measured="activity coefficient" result=0.998
compound="CCOC(C)=O [ethyl acetate] + O=S(=O)([N-]S(=O)(=O)C(F)(F)F)C(F)(F)F.O=S(=O)([N-]S(=O)(=O)C(F)(F)F)C(F)(F)F.c1ccc2cc(C[N+]3(CCCCCCCCC[N+]4(Cc5ccc6ccccc6c5)CCCC4)CCCC3)ccc2c1" property_measured="activity coefficient" result=0.565
compound="CCCCCC [hexane] + O=S(=O)([N-]S(=O)(=O)C(F)(F)F)C(F)(F)F.O=S(=O)([N-]S(=O)(=O)C(F)(F)F)C(F)(F)F.c1ccc2cc(C[N+]3(CCCCCCCCC[N+]4(Cc5ccc6ccccc6c5)CCCC4)CCCC3)ccc2c1" property_measured="activity coefficient" result=3.9
compound="O=C1CCCC1 [cyclopentanone] + O=S(=O)([N-]S(=O)(=O)C(F)(F)F)C(F)(F)F.O=S(=O)([N-]S(=O)(=O)C(F)(F)F)C(F)(F)F.c1ccc2cc(C[N+]3(CCCCCCCCC[N+]4(Cc5ccc6ccccc6c5)CCCC4)CCCC3)ccc2c1" property_measured="activity coefficient" result=0.324
compound="O=Cc1ccccc1 [benzaldehyde] + O=S(=O)([N-]S(=O)(=O)C(F)(F)F)C(F)(F)F.O=S(=O)([N-]S(=O)(=O)C(F)(F)F)C(F)(F)F.c1ccc2cc(C[N+]3(CCCCCCCCC[N+]4(Cc5ccc6ccccc6c5)CCCC4)CCCC3)ccc2c1" property_measured="activity coefficient" result=0.997
compound="Cc1ccccc1 [toluene] + O=S(=O)([N-]S(=O)(=O)C(F)(F)F)C(F)(F)F.O=S(=O)([N-]S(=O)(=O)C(F)(F)F)C(F)(F)F.c1ccc2cc(C[N+]3(CCCCCCCCC[N+]4(Cc5ccc6ccccc6c5)CCCC4)CCCC3)ccc2c1" property_measured="activity coefficient" result=0.721
compound="CC#N [acetonitrile] + O=S(=O)([N-]S(=O)(=O)C(F)(F)F)C(F)(F)F.O=S(=O)([N-]S(=O)(=O)C(F)(F)F)C(F)(F)F.c1ccc2cc(C[N+]3(CCCCCCCCC[N+]4(Cc5ccc6ccccc6c5)CCCC4)CCCC3)ccc2c1" property_measured="activity coefficient" result=0.341
compound="CC(C)O [propan-2-ol] + O=S(=O)([N-]S(=O)(=O)C(F)(F)F)C(F)(F)F.O=S(=O)([N-]S(=O)(=O)C(F)(F)F)C(F)(F)F.c1ccc2cc(C[N+]3(CCCCCCCCC[N+]4(Cc5ccc6ccccc6c5)CCCC4)CCCC3)ccc2c1" property_measured="activity coefficient" result=1.09

----------
// reported activity coefficient per item
experiment: activity coefficient (dimensionless); of the first substance listed, at infinite dilution; xn = mol fraction of the nth substance listed; conditions: 343 K; 87.4 kPa; Liquid; Chromatography; x1 = 0
PROPERTY MEASURED: activity coefficient

compound="CCN(CC)CC [triethylamine] + O=S(=O)([N-]S(=O)(=O)C(F)(F)F)C(F)(F)F.O=S(=O)([N-]S(=O)(=O)C(F)(F)F)C(F)(F)F.c1ccc2cc(C[N+]3(CCCCCCCCC[N+]4(Cc5ccc6ccccc6c5)CCCC4)CCCC3)ccc2c1" property_measured="activity coefficient" quantitative_readout=1.45
compound="CC#N [acetonitrile] + O=S(=O)([N-]S(=O)(=O)C(F)(F)F)C(F)(F)F.O=S(=O)([N-]S(=O)(=O)C(F)(F)F)C(F)(F)F.c1ccc2cc(C[N+]3(CCCCCCCCC[N+]4(Cc5ccc6ccccc6c5)CCCC4)CCCC3)ccc2c1" property_measured="activity coefficient" quantitative_readout=0.372
compound="ClCCCl [1,2-dichloroethane] + O=S(=O)([N-]S(=O)(=O)C(F)(F)F)C(F)(F)F.O=S(=O)([N-]S(=O)(=O)C(F)(F)F)C(F)(F)F.c1ccc2cc(C[N+]3(CCCCCCCCC[N+]4(Cc5ccc6ccccc6c5)CCCC4)CCCC3)ccc2c1" property_measured="activity coefficient" quantitative_readout=0.613
compound="CCCC(C)=O [pentan-2-one] + O=S(=O)([N-]S(=O)(=O)C(F)(F)F)C(F)(F)F.O=S(=O)([N-]S(=O)(=O)C(F)(F)F)C(F)(F)F.c1ccc2cc(C[N+]3(CCCCCCCCC[N+]4(Cc5ccc6ccccc6c5)CCCC4)CCCC3)ccc2c1" property_measured="activity coefficient" quantitative_readout=0.448
